Exercise: for every item that follows, state its recorded cell count.
# PROTOCOL SUMMARY: cell-permeable autofluorescent compounds in GFP channel, dose response, artefact control, imaging, high-content imaging (AID 2124);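 also: cells exposed to compound for 48 hours before fixing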
# PARTICULARS: cells, GFP-channel autofluorescence, high-content imaging; cell count; at 10 µM
Results filed as inconclusive are left out.
Give bare numbers, in cells.

Study these solved cases before continuing.
{"columns": ["COMPOUND", "NUMERIC VALUE"],
 "data": [
  ["CN1CC=C2C(C#N)=C(N)C(C#N)(C#N)[C@H](c3cccs3)[C@H]2C1", 2820],
  ["CCCCOc1ccc(-c2cc(C(F)(F)F)c(C#N)c(SCC(=O)O)n2)cc1", 3060],
  ["O=C(NC1C=CS(=O)(=O)C1)c1sc2ccccc2c1Cl (stereo unspecified)", 2120],
  ["O=C(c1cc([N+](=O)[O-])ccc1N1CCCC1)N1CCCC1", 3210],
  ["CCOC(=O)c1nn(-c2ccc(Cl)cc2Cl)c(=N)c(C#N)c1C", 2790]
]}

Could I get cell count for every one of these entries?
1. CCOC(=O)c1ccc(CSc2nnc(-c3ccncc3)n2N)cc1
2. CCN(CC)CCn1c(=S)[nH]c2ccc(Cl)cc2c1=O

Result:
1: 3110; 2: 2890

Batch of 4 compounds: report cell count for each.
1. O=Cc1sc(Nc2ccccc2)nc1Cl
2. Cc1cc(N/N=C/c2ccc([N+](=O)[O-])o2)nc2ccccc12
3. CN(C)C=Nc1ccc2nn(-c3ccccc3)nc2c1
4. Cc1c(-c2ccc(O)cc2)nc2nc(-c3ccccc3)c(-c3ccccc3)nn12

Result:
3150
733
3050
3200

###

# PROTOCOL SUMMARY: cell-permeable autofluorescent compounds in GFP channel, dose response, artefact control, imaging, high-content imaging (AID 2124);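 also: cells exposed to compound for 48 hours before fixing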
# PARTICULARS: cells, GFP-channel autofluorescence, high-content imaging; cell count; at 10 µM
Records with an inconclusive call do not appear.
Hi there, I'd appreciate the recorded cell count for every entry that follows.
Numbers only, in cells.

Known cell count results, listed for orientation:
{"columns": ["COMPOUND", "READOUT UNITS", "cell count"],
 "data": [
  ["Cc1ccc(S(=O)(=O)N2CCCC2C(=O)N(C)Cc2cccs2)cc1 (configuration not stated)", "cells", 3120],
  ["CCn1c2ccccc2c2nnc(SCC(=O)Nc3cc(C)on3)nc21", "cells", 3100],
  ["CC1CCCC(C)N1C(=O)CSc1nnc(-c2cccs2)o1 (configuration not stated)", "cells", 2440],
  ["O=[N+]([O-])c1ccc(N/N=C/c2ccc[nH]2)cc1", "cells", 841]
]}

For every item in the list below, what is its measured cell count?
1. COCCNC(=S)N/N=C(\C)c1ccc2cc(OC)ccc2c1
2. COc1ccccc1CC(=O)NC1CC(C)(C)NC(C)(C)C1
3. Cc1cc(NC(=O)/C(C#N)=C/c2ccc(-c3ccc(SC(F)F)cc3)o2)n(-c2ccccc2)n1
4. CCN(CC)c1ccc(/C=C(\C#N)C(=O)c2ccc(Br)cc2)cc1
5. C(=C/c1nccc2c1[nH]c1ccccc12)/c1ccc2c(c1)OCO2

Result:
[2790, 2940, 2190, 2740, 1910]

Quick request: cell count for each listed item, please.
1. O=[N+]([O-])c1ccc(N(c2ccccc2)c2ccccc2)cc1
2. Cc1ccnc(N/C=C(\C#N)c2nc(-c3cccc(Br)c3)cs2)c1
3. Cc1cccc(Oc2nccc(C(F)(F)F)c2C(=O)Nc2ccc(F)cc2F)c1
4. CCCCCCN1C=CC(=C/C=C(\C#N)C(=O)OCC)C=C1

Result:
[2510, 2880, 3510, 3270]

// batch mode: one cell count value per listed entry
1. CCN(CC)c1ccc(/C=C2/SC(=O)N(C(C)C)C2=O)o1
2. C=CCN1C(=O)/C(=C/C=C2/N(CC)c3ccc(S(=O)(=O)N(C)C)cc3N2CC)SC1=S
3. Cc1cccn2c(=O)c(/C=C3\SC(=S)N(CC(C)C)C3=O)c(NCCCOC(C)C)nc12
4. Fc1ccc(C2NCCn3cccc32)cc1 (configuration not stated)

Result:
1: 596; 2: 2740; 3: 2810; 4: 2950

Quick one: give me cell count for each item below, same order please.
1. Cc1cccc(N=Cc2[nH]c3ccc(Br)c(Cl)c3c2O)c1
2. CC(C)C1S/C(=N/N=C/c2ccco2)NC1=O (configuration not stated)

Result:
[3340, 3160]

Return reported cell count values for all items listed beneath this line.
1. CN(C)c1ccc(/C=C2\SC(=O)N(CC(O)Cn3c4ccccc4c4ccccc43)C2=O)cc1 (configuration not stated)
2. CN(C)C(=O)C1C2NC(=S)N(c3cccc(Cl)c3)C1(C)Oc1ccc(Cl)cc12 (configuration not stated)
3. COc1ccc(CN2C(=O)/C(=C/c3ccc(-c4ccc(Cl)c(C(=O)O)c4)o3)SC2=S)cc1

Result:
1: 3020; 2: 3180; 3: 3020

Reference for the values: PubChem BioAssay AID2124
